Measured Purity (area %) values are reported for all entries that follow.
CONDITION LABEL: exposed to sunlight 36 hours; HPLC
API: value field is a number in area %; no unit string.

Below, 2 molecules whose answers are already recorded.
INSERT INTO measurements (molecule, result_units, measured_value) VALUES
  ('CC1(C)[C@H]2CC[C@]1(CS(=O)(=O)O)C(=O)C2.CCOC(=O)C1=C(COCCN)NC(C)=C(C(=O)OC)[C@@H]1c1ccccc1Cl [(R)-Camsylate of Ref. Ex. 1, S-(−)-amlodipine (R)-camsylate]', 'area %', 94.8),
  ('CC1(C)[C@@H]2CC[C@@]1(CS(=O)(=O)O)C(=O)C2.CCOC(=O)C1=C(COCCN)NC(C)=C(C(=O)OC)[C@@H]1c1ccccc1Cl [(1S)-(+)-10-Camsylate anhydride of Ex. 2]', 'area %', 99.7);

# evaluate next
Respond only with Purity (area %) recorded for CCOC(=O)C1=C(COCCN)NC(C)=C(C(=O)OC)[C@@H]1c1ccccc1Cl.O=S(=O)(O)c1ccccc1 [Besylate, (S)-(−)-amlodipine besylate]
93.4

* * *

CONDITION LABEL: exposed to sunlight 24 hours; HPLC
MEASURED ATTRIBUTE: Purity (area %)
API: value field is a number in area %; no unit string.

INSERT INTO results (compound, result_units, measured_value) VALUES
  ('CC1(C)[C@@H]2CC[C@@]1(CS(=O)(=O)O)C(=O)C2.CCOC(=O)C1=C(COCCN)NC(C)=C(C(=O)OC)[C@@H]1c1ccccc1Cl.O [(1S)-(+)-10-Camsylate hydrate of Ex. 1]', 'area %', 99.8),
  ('CC1(C)C2CCC1(CS(=O)(=O)O)C(=O)C2.CCOC(=O)C1=C(COCCN)NC(C)=C(C(=O)OC)[C@@H]1c1ccccc1Cl.O (racemic) [(±)-10-Camsylate hydrate of Ex. 3]', 'area %', 99.6);

# evaluate next
Respond only with Purity (area %) recorded for CC1(C)[C@H]2CC[C@]1(CS(=O)(=O)O)C(=O)C2.CCOC(=O)C1=C(COCCN)NC(C)=C(C(=O)OC)[C@@H]1c1ccccc1Cl [(R)-Camsylate of Ref. Ex. 1, S-(−)-amlodipine (R)-camsylate]
98.1

* * *

Measured Purity (area %) values are reported for all entries that follow.
CONDITION LABEL: Initial, before exposure to sunlight; HPLC
API: value field is a number in area %; no unit string.

INSERT INTO assay_data (molecule, measured_value) VALUES
  ('CCOC(=O)C1=C(COCCN)NC(C)=C(C(=O)OC)[C@@H]1c1ccccc1Cl.O=S(=O)(O)c1ccccc1 [Besylate, (S)-(−)-amlodipine besylate]', 99.8),
  ('CC1(C)[C@@H]2CC[C@@]1(CS(=O)(=O)O)C(=O)C2.CCOC(=O)C1=C(COCCN)NC(C)=C(C(=O)OC)[C@@H]1c1ccccc1Cl.O [(1S)-(+)-10-Camsylate hydrate of Ex. 1]', 99.9),
  ('CC1(C)[C@H]2CC[C@]1(CS(=O)(=O)O)C(=O)C2.CCOC(=O)C1=C(COCCN)NC(C)=C(C(=O)OC)[C@@H]1c1ccccc1Cl [(R)-Camsylate of Ref. Ex. 1, S-(−)-amlodipine (R)-camsylate]', 99.8),
  ('CC1(C)[C@@H]2CC[C@@]1(CS(=O)(=O)O)C(=O)C2.CCOC(=O)C1=C(COCCN)NC(C)=C(C(=O)OC)[C@@H]1c1ccccc1Cl [(1S)-(+)-10-Camsylate anhydride of Ex. 2]', 99.9),
  ('CCOC(=O)C1=C(COCCN)NC(C)=C(C(=O)OC)C1c1ccccc1Cl (stereo not drawn) [Nicotinate dehydrate, (s)-(−)-amlodipine nicotinate dihyrate]', 99.8);

# evaluate next
Respond only with Purity (area %) recorded for CC1(C)C2CCC1(CS(=O)(=O)O)C(=O)C2.CCOC(=O)C1=C(COCCN)NC(C)=C(C(=O)OC)[C@@H]1c1ccccc1Cl.O (racemic) [(±)-10-Camsylate hydrate of Ex. 3]
99.8

* * *

Measured Purity (area %) values are reported for all entries that follow.
CONDITION LABEL: exposed to sunlight 18 hours; HPLC
API: value field is a number in area %; no unit string.

Respond only with Purity (area %) recorded for CC1(C)C2CCC1(CS(=O)(=O)O)C(=O)C2.CCOC(=O)C1=C(COCCN)NC(C)=C(C(=O)OC)[C@@H]1c1ccccc1Cl.O (racemic) [(±)-10-Camsylate hydrate of Ex. 3]
99.7

* * *

CONDITION LABEL: exposed to sunlight 12 hours; HPLC
Measured Purity (area %) values are reported for all entries that follow.
API: value field is a number in area %; no unit string.

Below, 5 molecules whose answers are already recorded.
INSERT INTO results (molecule, measured_value) VALUES
  ('CCOC(=O)C1=C(COCCN)NC(C)=C(C(=O)OC)C1c1ccccc1Cl (stereo not drawn) [Nicotinate dehydrate, (s)-(−)-amlodipine nicotinate dihyrate]', 99.0),
  ('CC1(C)[C@@H]2CC[C@@]1(CS(=O)(=O)O)C(=O)C2.CCOC(=O)C1=C(COCCN)NC(C)=C(C(=O)OC)[C@@H]1c1ccccc1Cl [(1S)-(+)-10-Camsylate anhydride of Ex. 2]', 99.9),
  ('CC1(C)[C@@H]2CC[C@@]1(CS(=O)(=O)O)C(=O)C2.CCOC(=O)C1=C(COCCN)NC(C)=C(C(=O)OC)[C@@H]1c1ccccc1Cl.O [(1S)-(+)-10-Camsylate hydrate of Ex. 1]', 99.9),
  ('CC1(C)C2CCC1(CS(=O)(=O)O)C(=O)C2.CCOC(=O)C1=C(COCCN)NC(C)=C(C(=O)OC)[C@@H]1c1ccccc1Cl.O (racemic) [(±)-10-Camsylate hydrate of Ex. 3]', 99.8),
  ('CCOC(=O)C1=C(COCCN)NC(C)=C(C(=O)OC)[C@@H]1c1ccccc1Cl.O=S(=O)(O)c1ccccc1 [Besylate, (S)-(−)-amlodipine besylate]', 99.4);

Respond only with Purity (area %) recorded for CC1(C)[C@H]2CC[C@]1(CS(=O)(=O)O)C(=O)C2.CCOC(=O)C1=C(COCCN)NC(C)=C(C(=O)OC)[C@@H]1c1ccccc1Cl [(R)-Camsylate of Ref. Ex. 1, S-(−)-amlodipine (R)-camsylate]
99.7

* * *

CONDITION LABEL: exposed to sunlight 36 hours; HPLC
Measured Purity (area %) values are reported for all entries that follow.
API: value field is a number in area %; no unit string.

Below, 2 compounds whose answers are already recorded.
INSERT INTO measurements (compound, result_units, measured_value) VALUES
  ('CC1(C)C2CCC1(CS(=O)(=O)O)C(=O)C2.CCOC(=O)C1=C(COCCN)NC(C)=C(C(=O)OC)[C@@H]1c1ccccc1Cl.O (racemic) [(±)-10-Camsylate hydrate of Ex. 3]', 'area %', 99.3),
  ('CC1(C)[C@@H]2CC[C@@]1(CS(=O)(=O)O)C(=O)C2.CCOC(=O)C1=C(COCCN)NC(C)=C(C(=O)OC)[C@@H]1c1ccccc1Cl.O [(1S)-(+)-10-Camsylate hydrate of Ex. 1]', 'area %', 99.7);

# evaluate next
Respond only with Purity (area %) recorded for CCOC(=O)C1=C(COCCN)NC(C)=C(C(=O)OC)C1c1ccccc1Cl (stereo not drawn) [Nicotinate dehydrate, (s)-(−)-amlodipine nicotinate dihyrate]
97.9

* * *

CONDITION LABEL: exposed to sunlight 6 hours; HPLC
Measured Purity (area %) values are reported for all entries that follow.
API: value field is a number in area %; no unit string.

INSERT INTO assay_data (molecule, measured_value) VALUES
  ('CCOC(=O)C1=C(COCCN)NC(C)=C(C(=O)OC)[C@@H]1c1ccccc1Cl.O=S(=O)(O)c1ccccc1 [Besylate, (S)-(−)-amlodipine besylate]', 99.9),
  ('CC1(C)C2CCC1(CS(=O)(=O)O)C(=O)C2.CCOC(=O)C1=C(COCCN)NC(C)=C(C(=O)OC)[C@@H]1c1ccccc1Cl.O (racemic) [(±)-10-Camsylate hydrate of Ex. 3]', 99.9),
  ('CC1(C)[C@H]2CC[C@]1(CS(=O)(=O)O)C(=O)C2.CCOC(=O)C1=C(COCCN)NC(C)=C(C(=O)OC)[C@@H]1c1ccccc1Cl [(R)-Camsylate of Ref. Ex. 1, S-(−)-amlodipine (R)-camsylate]', 99.9),
  ('CC1(C)[C@@H]2CC[C@@]1(CS(=O)(=O)O)C(=O)C2.CCOC(=O)C1=C(COCCN)NC(C)=C(C(=O)OC)[C@@H]1c1ccccc1Cl.O [(1S)-(+)-10-Camsylate hydrate of Ex. 1]', 99.9),
  ('CCOC(=O)C1=C(COCCN)NC(C)=C(C(=O)OC)C1c1ccccc1Cl (stereo not drawn) [Nicotinate dehydrate, (s)-(−)-amlodipine nicotinate dihyrate]', 99.6);

Respond only with Purity (area %) recorded for CC1(C)[C@@H]2CC[C@@]1(CS(=O)(=O)O)C(=O)C2.CCOC(=O)C1=C(COCCN)NC(C)=C(C(=O)OC)[C@@H]1c1ccccc1Cl [(1S)-(+)-10-Camsylate anhydride of Ex. 2]
99.9

Hello, the source for this data is patent US20090326234A1, in case you need it.
